# credit: paper PMC11859309

Entries annotated with measured inhibition at 10 µM
- System: U138-MG glioblastoma cell line
- Test Name: MTT cell proliferation assay, U138-MG
- Format: cell-based
- Test Parameters: Homo sapiens, equals 100 minus cell proliferation of Table 1 (10 μM, 48 h), read-out: cell inhibition percentage (activity)
- Method: U87-MG (HTB-16) and U138-MG (HTB-14) lines were purchased from ATCC. […] The proliferation effects of the drug candidates on the U87-MG and U138-MG cell lines were tested using the MTT (3-(4,5-dimethylthiazol-2-yl)-2,5-diphenyltetrazolium bromide) assay. […] Cell proliferation was analysed by measuring the absorbance of the dissolved formazan at a wavelength of 570 nm using a microplate reader (Epoch, San Jose, CA, USA). […]
Don't forget the unit after the number, please.

Compound | inhibition at 10 µM
CCCc1ccc(/C=N/NC(=O)COc2ccc3c(c2)CCC(=O)N3)cc1 [4h] | 0%
O=C(COc1ccc2c(c1)CCC(=O)N2)N/N=C/c1cnc(-c2ccc(Cl)cc2)nc1 [4q] | 61%
O=C(COc1ccc2c(c1)CCC(=O)N2)N/N=C/c1ccc(Cl)cc1 [4b] | 40%

Next item in the queue.
The recorded inhibition at 10 µM for O=C(COc1ccc2c(c1)CCC(=O)N2)N/N=C/c1ccc(-c2ccc(Cl)cc2)cc1 [4w] is 20%

---

- Test Name: PAMPA, BBB-mimicking membrane
- Assay type: in vitro ADME
- Test Parameters: 500 μM, 18 h, 37 °C
Readout Name: Permeability through BBB-mimicking membrane (class in words)

Smiles Representation | Obs Value
O=C(COc1ccc2c(c1)CCC(=O)N2)N/N=C/c1ccccc1 | high permeability
CCCc1ccc(/C=N/NC(=O)COc2ccc3c(c2)CCC(=O)N3)cc1 | high permeability
O=C(COc1ccc2c(c1)CCC(=O)N2)N/N=C/c1cccc(Oc2ccc(Cl)cc2)c1 | high permeability
